tested on: TDF; assay: cell number relative to DMSO (% of DMSO); higher = more cells (less growth inhibition / toxicity); conditions: concentration: 10 µM; 24 h;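 note: TDF denotes transformed human dermal fibroblasts of mesenchymal origin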
Output fulfilled for cell number not less than 100; output not fulfilled otherwise.

Completed entries (count: 2):
Record O=c1[nH]c(=O)n(C2CC(O)C(CO)O2)cc1Br (configuration not stated) ; criterion: cell number no lower than 100. Met?
fulfilled

Record COc1cccc2c1C(=O)c1c(O)c3c(c(O)c1C2=O)CC(O)(C(=O)CO)CC3OC1CC(N)C(O)C(C)O1.Cl (configuration not stated) [Doxorubicin.HCl] ; criterion: cell number no lower than 100. Met?
not fulfilled

Query molecule follows.
Record C[C@@H]1CCN(C(=O)CC#N)C[C@@H]1N(C)c1ncnc2[nH]ccc12 ; criterion: cell number no lower than 100. Met?
fulfilled
